Data origin: patent US6133279A

Can you tell me inhibition at 1 µM for the items I'm about to list?
# Tested on: porcine kidney-derived LLC-PK1 cells
# Test Description: Protective effect against oxidized LDL-induced injury of porcine kidney-derived LLC-PK1 cells (1)
# Assay type: cell-based
# Measurement Conditions: Sus scrofa, LLC-PK1, 6 h, 1 μM; compound added immediately before adding oxidized LDL; mean ± standard deviation; read-out: Cytoprotection rate (%)
Enter your answer as a number in %; do not include the unit.

Per the records, this compound ( CC(C)(C)c1cc2occc2c(C(C)(C)C)c1O [Example 27, 4,6-Di-t-butyl-5-hydroxybenzofuran] ) has inhibition at 1 µM equal to 91

Value of measured inhibition at 1 µM for the entry CC(=O)Oc1c(C(C)(C)C)cc2c(c1C(C)(C)C)CC(C)(C)O2 [Example 3] : -4

Looking up Cc1c(C)c2c(c(C)c1O)CCC(C)(CCCC(C)CCCC(C)CCCC(C)C)O2 (stereo not drawn) [α-tocopherol, reference compound] , I found its inhibition at 1 µM recorded as 8.2

The reported value for CC1(C)Cc2c(cc(C(C)(C)C)c(O)c2C(C)(C)C)S1 [Example 52] in terms of inhibition at 1 µM is 96.9

Memo: CC1(CO)Cc2c(cc(C(C)(C)C)c(O)c2C(C)(C)C)O1 (stereo not drawn) [Example 48] , reported inhibition at 1 µM: 102

Short answer for CC(C)(C)c1cc2c(c(C(C)(C)C)c1O)CC1(CCOCC1)O2 [Example 22] : inhibition at 1 µM was 101

Record CCCc1c2c(c(C(C)(C)C)c(O)c1C(C)(C)C)CC(C)(C)O2 [Example 25] . Reported inhibition at 1 µM: 0.8

Reported inhibition at 1 µM for CC(C)(C)c1cc2c(c(C(C)(C)C)c1O)CC1(CCCCC1)S2 [Example 58] was 74.3

The recorded inhibition at 1 µM for entry C/C(=C\CCC1(C)Cc2c(cc(C(C)(C)C)c(O)c2C(C)(C)C)O1)CO (stereo not drawn) [Example 46] equals 101

###

# System: porcine kidney-derived LLC-PK1 cells
# Test Description: Protective effect against oxidized LDL-induced injury of porcine kidney-derived LLC-PK1 cells (2)
# Type: cell-based
# Measurement Conditions: Sus scrofa, LLC-PK1, 6 h, 1 μM; compound added 16 hours before adding oxidized LDL; mean ± standard deviation; read-out: Cytoprotection rate (%)
Parameter Measured: inhibition at 1 µM (%)
Provide the reading as a plain figure in %.

The compound CC(C)(C)c1cc2c(c(C(C)(C)C)c1O)CC1(CCOCC1)S2 [Example 69] , when measured on porcine kidney-derived LLC-PK1 cells, yielded inhibition at 1 µM of 24.6

Reported inhibition at 1 µM (porcine kidney-derived LLC-PK1 cells) for entry CC1(CNC(N)=S)Cc2c(cc(C(C)(C)C)c(O)c2C(C)(C)C)O1 (stereo not shown) [Example 80] is 23.7

Measured inhibition at 1 µM (porcine kidney-derived LLC-PK1 cells), entry CC1(C=CCCCC(=O)O)Cc2c(cc(C(C)(C)C)c(O)c2C(C)(C)C)O1 (stereo not shown) [Example 77] : 6.1

# inhibition at 1 µM measured on porcine kidney-derived LLC-PK1 cells for item CC1(CCCCCC(=O)O)Cc2c(cc(C(C)(C)C)c(O)c2C(C)(C)C)O1 (stereo not shown) [Example 78] = -10.7

Note to self: inhibition at 1 µM of CC1(C(=O)N2CCCC2)Cc2c(cc(C(C)(C)C)c(O)c2C(C)(C)C)O1 (stereo not shown) [Example 74] with porcine kidney-derived LLC-PK1 cells was 54.8

Bench note, porcine kidney-derived LLC-PK1 cells: entry CC1(CN)Cc2c(cc(C(C)(C)C)c(O)c2C(C)(C)C)O1 (stereo not shown) [Example 70] , its inhibition at 1 µM = 101

Measured inhibition at 1 µM (porcine kidney-derived LLC-PK1 cells), entry CC1(CNC(=N)NN)Cc2c(cc(C(C)(C)C)c(O)c2C(C)(C)C)O1 (stereo not shown) [Example 81] : 4.2

# lookup: CC(C)(C)c1cc2c(c(C(C)(C)C)c1O)CC1(CCSCC1)O2 [Example 68] on porcine kidney-derived LLC-PK1 cells, inhibition at 1 µM = 56.2

Entry CC(C)(C)c1cc2c(c(C(C)(C)C)c1O)CC1(CCCCC1)O2 [Example 19] under porcine kidney-derived LLC-PK1 cells had inhibition at 1 µM of 60.6

Item COC(=O)C1(C)Cc2c(cc(C(C)(C)C)c(O)c2C(C)(C)C)O1 (stereo not shown) [Example 73] ; assay system porcine kidney-derived LLC-PK1 cells; inhibition at 1 µM reported as 78.9

Here CN(C)CC1(C)Cc2c(cc(C(C)(C)C)c(O)c2C(C)(C)C)S1 (stereo not shown) [Example 61] was tested on porcine kidney-derived LLC-PK1 cells, and its inhibition at 1 µM came to 85.7

inhibition at 1 µM on porcine kidney-derived LLC-PK1 cells for CC1(C(=O)O)Cc2c(cc(C(C)(C)C)c(O)c2C(C)(C)C)O1 (stereo not shown) [Example 72] is 14.8

The compound CC(C)(C)c1cc2c(c(C(C)(C)C)c1O)CC1(CCCCCCC1)O2 [Example 21] on porcine kidney-derived LLC-PK1 cells: inhibition at 1 µM was 13.7

// assay porcine kidney-derived LLC-PK1 cells, entry CCOC(=O)/C=C/C1(C)Cc2c(cc(C(C)(C)C)c(O)c2C(C)(C)C)O1 (stereo not shown) [Example 75] , inhibition at 1 µM value = 26.6

Summary line: CCOC(=O)CCC1(C)Cc2c(cc(C(C)(C)C)c(O)c2C(C)(C)C)O1 (stereo not shown) [Example 76] , porcine kidney-derived LLC-PK1 cells, reported inhibition at 1 µM = -2.8

Noted inhibition at 1 µM for CC1(CO)Cc2c(cc(C(C)(C)C)c(O)c2C(C)(C)C)S1 (stereo not shown) [Example 63] , tested on porcine kidney-derived LLC-PK1 cells: 95.3

Case CC1(CNNC(=N)N)Cc2c(cc(C(C)(C)C)c(O)c2C(C)(C)C)O1 (stereo not shown) [Example 87] , porcine kidney-derived LLC-PK1 cells, inhibition at 1 µM recorded as 6.5

Entry CC1(COc2ccc(CNNC(=N)N)cc2)Cc2c(cc(C(C)(C)C)c(O)c2C(C)(C)C)O1 (stereo not shown) [Example 86] : inhibition at 1 µM on porcine kidney-derived LLC-PK1 cells = 3.6

Per the reported porcine kidney-derived LLC-PK1 cells data, CC1(CC#N)Cc2c(cc(C(C)(C)C)c(O)c2C(C)(C)C)O1 (stereo not shown) [Example 71] has inhibition at 1 µM of 26.9

###

# System: porcine kidney-derived LLC-PK1 cells
# Test Description: Protective effect against oxidized LDL-induced injury of porcine kidney-derived LLC-PK1 cells (2)
# Format: cell-based
# Measurement Conditions: Sus scrofa, LLC-PK1, 6 h, 0.1 μM; compound added 16 hours before adding oxidized LDL; mean ± standard deviation; read-out: Cytoprotection rate (%)
Parameter Measured: inhibition at 0.1 µM (%)
Express your answer in %, writing the number without its unit.

For COC(=O)C1(C)Cc2c(cc(C(C)(C)C)c(O)c2C(C)(C)C)O1 (stereo not shown) [Example 73] the compound record lists inhibition at 0.1 µM as 5.7

// inhibition at 0.1 µM value for CC(C)(C)c1cc2c(c(C(C)(C)C)c1O)CC1(CCSCC1)O2 [Example 68] : 12

Note to self: inhibition at 0.1 µM recorded for CC1(C(=O)N2CCCC2)Cc2c(cc(C(C)(C)C)c(O)c2C(C)(C)C)O1 (stereo not shown) [Example 74] was 25.2

Record summary for CCOC(=O)CCC1(C)Cc2c(cc(C(C)(C)C)c(O)c2C(C)(C)C)O1 (stereo not shown) [Example 76] : reported inhibition at 0.1 µM = -10.4

Record summary for CC1(CNC(N)=S)Cc2c(cc(C(C)(C)C)c(O)c2C(C)(C)C)O1 (stereo not shown) [Example 80] : reported inhibition at 0.1 µM = 9.2

// inhibition at 0.1 µM value for CC(C)(C)c1cc2c(c(C(C)(C)C)c1O)CC1(CCOCC1)S2 [Example 69] : 1

The compound listed as CC1(CNNC(=N)N)Cc2c(cc(C(C)(C)C)c(O)c2C(C)(C)C)O1 (stereo not shown) [Example 87] shows inhibition at 0.1 µM equal to -7.8

Reported inhibition at 0.1 µM of CC1(CC#N)Cc2c(cc(C(C)(C)C)c(O)c2C(C)(C)C)O1 (stereo not shown) [Example 71] : 10.4

Entry CC1(CCCCCC(=O)O)Cc2c(cc(C(C)(C)C)c(O)c2C(C)(C)C)O1 (stereo not shown) [Example 78] , inhibition at 0.1 µM reported as -2.8

The compound CC(C)(C)c1cc2c(c(C(C)(C)C)c1O)CC1(CCCCC1)O2 [Example 19] showed inhibition at 0.1 µM equal to 2.7

The recorded inhibition at 0.1 µM for entry CCOC(=O)/C=C/C1(C)Cc2c(cc(C(C)(C)C)c(O)c2C(C)(C)C)O1 (stereo not shown) [Example 75] equals 4.9

For record CC1(CNC(=N)NN)Cc2c(cc(C(C)(C)C)c(O)c2C(C)(C)C)O1 (stereo not shown) [Example 81] the listed inhibition at 0.1 µM is 6.9

The compound identified as CC1(C(=O)O)Cc2c(cc(C(C)(C)C)c(O)c2C(C)(C)C)O1 (stereo not shown) [Example 72] registered its inhibition at 0.1 µM at 2.3

The reported value for CC1(COc2ccc(CNNC(=N)N)cc2)Cc2c(cc(C(C)(C)C)c(O)c2C(C)(C)C)O1 (stereo not shown) [Example 86] in terms of inhibition at 0.1 µM is -0.4

# inhibition at 0.1 µM (compound: CC(C)(C)c1cc2c(c(C(C)(C)C)c1O)CC1(CCCCCCC1)O2 [Example 21] ) is 15.6

Looking up CC1(C=CCCCC(=O)O)Cc2c(cc(C(C)(C)C)c(O)c2C(C)(C)C)O1 (stereo not shown) [Example 77] , I found its inhibition at 0.1 µM recorded as 12.3

// inhibition at 0.1 µM value for CN(C)CC1(C)Cc2c(cc(C(C)(C)C)c(O)c2C(C)(C)C)S1 (stereo not shown) [Example 61] : 5

inhibition at 0.1 µM recorded for this compound, CC1(CN)Cc2c(cc(C(C)(C)C)c(O)c2C(C)(C)C)O1 (stereo not shown) [Example 70] , is 17.5

Per the records, this compound ( CC1(CO)Cc2c(cc(C(C)(C)C)c(O)c2C(C)(C)C)S1 (stereo not shown) [Example 63] ) has inhibition at 0.1 µM equal to 4.2
